Origin of measurements: ChEMBL document CHEMBL4368912

- assay remarks: Tmax in Wistar rat at 3 mg/kg, po or 1 mg/kg, iv by LC-MS/MS analysis
- Assay type: ADME, organism-based
- measurement context: in vivo
Listing of entries alongside the reported Tmax.
value type: Tmax (h)

molecule: O=C(NCCN1CCOCC1)c1ccc(OC2CCN(C3CCC3)CC2)cc1
value type: Tmax
measured: 1.33

molecule: CC(C)N1CCC(Oc2ccc(NC(=O)CN3CCOCC3)cc2)CC1.Cl.Cl
value type: Tmax
measured: 0.42

molecule: Cl.Cl.O=C(CN1CCCCC1)Nc1ccc(OC2CCN(C3CCC3)CC2)cc1
value type: Tmax
measured: 3.33

molecule: Cl.Cl.O=C(CN1CCCC1CO)Nc1ccc(OC2CCN(C3CCC3)CC2)cc1 (centres undefined)
value type: Tmax
measured: 0.58

molecule: Cc1cc(OC2CCN(C3CCC3)CC2)ccc1NC(=O)CN1CCCC1.Cl.Cl
value type: Tmax
measured: 2.17

molecule: O=C(Cc1ccncc1)Nc1ccc(OC2CCN(C3CCC3)CC2)cc1.O=C(O)C(O)C(O)C(=O)O
value type: Tmax
measured: 0.25

molecule: O=C1c2ccc(OC3CCN(C4CCC4)CC3)cc2CCN1C1CCN(C2CCC2)CC1
value type: Tmax
measured: 6

molecule: Cl.Cl.O=C(CN1CCCC1)Nc1ccc(OC2CCN(C3CCC3)CC2)cc1
value type: Tmax
measured: 3.33

molecule: O=C(NCCN1CCCC1)c1ccc(OC2CCN(C3CCCC3)CC2)cc1
value type: Tmax
measured: 3.33

---

- assay remarks: Ratio of drug uptake in Wistar rat brain to plasma at 3 mg/kg, po by LC-MS/MS analysis
- Type: ADME, organism-based
- measurement context: brain and plasma, read-out: BPR
Lab note - cut at 0.4 for Kp: y if strictly below, n if not.

cpd smiles: CC(C)N1CCC(Oc2ccc(NC(=O)CN3CCOCC3)cc2)CC1.Cl.Cl
label class: y
//
cpd smiles: Cl.Cl.O=C(CN1CCOCC1)Nc1ccc(OC2CCN(C3CCC3)CC2)cc1
label class: n
//
cpd smiles: O=C(NCCN1CCOCC1)c1ccc(OC2CCN(C3CCC3)CC2)cc1
label class: y
//
cpd smiles: O=C(Cc1ccncc1)Nc1ccc(OC2CCN(C3CCC3)CC2)cc1.O=C(O)C(O)C(O)C(=O)O
label class: y
//
cpd smiles: Cc1cc(OC2CCN(C3CCC3)CC2)ccc1NC(=O)CN1CCCC1.Cl.Cl
label class: n
//
cpd smiles: Cl.Cl.O=C(CN1CCCCC1)Nc1ccc(OC2CCN(C3CCC3)CC2)cc1
label class: n

---

Listing of entries alongside the reported bioavailability.
- assay remarks: Oral bioavailability in Wistar rat at 3 mg/kg by LC-MS/MS analysis
- Format: ADME, organism-based
- measurement context: in vivo

compound: O=C(Cc1ccncc1)Nc1ccc(OC2CCN(C3CCC3)CC2)cc1.O=C(O)C(O)C(O)C(=O)O
unit tag: %
bioavailability: 125
--
compound: O=C(NCCN1CCCC1)c1ccc(OC2CCN(C3CCCC3)CC2)cc1
unit tag: %
bioavailability: 48
--
compound: Cl.Cl.O=C(CN1CCCC1CO)Nc1ccc(OC2CCN(C3CCC3)CC2)cc1 (stereo not drawn)
unit tag: %
bioavailability: 10
--
compound: Cc1cc(OC2CCN(C3CCC3)CC2)ccc1NC(=O)CN1CCCC1.Cl.Cl
unit tag: %
bioavailability: 20
--
compound: O=C(NCCN1CCOCC1)c1ccc(OC2CCN(C3CCC3)CC2)cc1
unit tag: %
bioavailability: 46
--
compound: Cl.Cl.O=C(CN1CCCCC1)Nc1ccc(OC2CCN(C3CCC3)CC2)cc1
unit tag: %
bioavailability: 37
--
compound: CC(C)N1CCC(Oc2ccc(NC(=O)CN3CCOCC3)cc2)CC1.Cl.Cl
unit tag: %
bioavailability: 85
--
compound: Cl.Cl.O=C(CN1CCCC1)Nc1ccc(OC2CCN(C3CCC3)CC2)cc1
unit tag: %
bioavailability: 17

---

- assay remarks: Lipophilicity, log D of the compound at pH 7.4
- Assay type: physicochemical
- measurement context: buffer

compound: Cl.Cl.O=C(CN1CCOCC1)Nc1ccc(OC2CCN(C3CCC3)CC2)cc1
logD: 0.4

compound: CC(C)N1CCC(Oc2ccc(NC(=O)CN3CCCCC3)cc2)CC1
logD: 1.6

compound: Cl.Cl.O=C(CN1CCCC1CO)Nc1ccc(OC2CCN(C3CCC3)CC2)cc1 (configuration not stated)
logD: 0.6

compound: Cl.Cl.O=C(CN1CCCC1)Nc1ccc(OC2CCN(C3CCC3)CC2)cc1
logD: 1.2

compound: Cl.Cl.O=C(CN1CCCCC1)Nc1ccc(OC2CCN(C3CCC3)CC2)cc1
logD: 1.3

compound: CC(C)N1CCC(Oc2ccc(NC(=O)CN3CCOCC3)cc2)CC1.Cl.Cl
logD: 0.5

compound: O=C(CN1CCCCCC1)Nc1ccc(OC2CCN(C3CCC3)CC2)cc1
logD: 1.7

---

- assay remarks: Half life in Wistar rat at 1 mg/kg, iv by LC-MS/MS analysis
- Assay type: ADME, organism-based
- measurement context: in vivo
Listing of entries alongside the reported half-life.

molecule: O=C(NCCN1CCOCC1)c1ccc(OC2CCN(C3CCC3)CC2)cc1
half-life: 13.8 h

molecule: Cl.Cl.O=C(CN1CCCC1CO)Nc1ccc(OC2CCN(C3CCC3)CC2)cc1 (stereo not drawn)
half-life: 1.88 h

molecule: O=C(Cc1ccncc1)Nc1ccc(OC2CCN(C3CCC3)CC2)cc1.O=C(O)C(O)C(O)C(=O)O
half-life: 1.12 h

---

- assay remarks: AUC (0 to 24 hrs) in Wistar rat at 1 mg/kg, iv by LC-MS/MS analysis
- Type: ADME, organism-based
- Set-up: time < 24 hr, dose 1 mg/kg, route intravenous
- measurement context: Wistar, in vivo
Lab note - cut at 300 ng·h/mL for AUC(0-t) at 24 h: TRUE if strictly below, FALSE if not.

compound: O=C(Cc1ccncc1)Nc1ccc(OC2CCN(C3CCC3)CC2)cc1.O=C(O)C(O)C(O)C(=O)O
label class: TRUE

compound: Cl.Cl.O=C(CN1CCOCC1)Nc1ccc(OC2CCN(C3CCC3)CC2)cc1
label class: TRUE

compound: Cl.Cl.O=C(CN1CCCC1CO)Nc1ccc(OC2CCN(C3CCC3)CC2)cc1 (stereo not drawn)
label class: TRUE

compound: O=C(NCCN1CCOCC1)c1ccc(OC2CCN(C3CCC3)CC2)cc1
label class: TRUE

compound: Cl.Cl.O=C(CN1CCCC1)Nc1ccc(OC2CCN(C3CCC3)CC2)cc1
label class: FALSE

compound: O=C1c2ccc(OC3CCN(C4CCC4)CC3)cc2CCN1C1CCN(C2CCC2)CC1
label class: FALSE

compound: O=C(NCCN1CCCC1)c1ccc(OC2CCN(C3CCCC3)CC2)cc1
label class: TRUE

compound: CC(C)N1CCC(Oc2ccc(NC(=O)CN3CCOCC3)cc2)CC1.Cl.Cl
label class: FALSE

---

- assay remarks: Dissociation constant, pKa2 of the compound by potentiometric titration assay
- Assay type: physicochemical
Label rule, in plain words: pKa of 7 and up is MET, under 7 is NOT MET.

compound: Cl.Cl.O=C(CN1CCCC1)Nc1ccc(OC2CCN(C3CCC3)CC2)cc1
label class: MET
//
compound: Cl.Cl.O=C(CN1CCOCC1)Nc1ccc(OC2CCN(C3CCC3)CC2)cc1
label class: NOT MET
//
compound: Cl.Cl.O=C(CN1CCCC1CO)Nc1ccc(OC2CCN(C3CCC3)CC2)cc1 (configuration not stated)
label class: NOT MET
//
compound: O=C(CN1CCCCCC1)Nc1ccc(OC2CCN(C3CCC3)CC2)cc1
label class: MET
//
compound: CC(C)N1CCC(Oc2ccc(NC(=O)CN3CCOCC3)cc2)CC1.Cl.Cl
label class: NOT MET
//
compound: Cl.Cl.O=C(CN1CCCCC1)Nc1ccc(OC2CCN(C3CCC3)CC2)cc1
label class: MET

---

- assay remarks: Fraction unbound in dog plasma at 1 uM by equilibrium dialysis
- Assay type: ADME, cell-free, Canis lupus familiaris

cpd smiles: Cl.Cl.O=C(CN1CCOCC1)Nc1ccc(OC2CCN(C3CCC3)CC2)cc1
fraction unbound at 1 µM: 0.52

---

- assay remarks: Metabolic stability in human hepatocytes after 30 mins by LC-MS/MS analysis
- Type: ADME, cell-based, Hepatocyte
- measurement context: read-out: Stability
value type: remaining at 0.5 h

cpd smiles: Cl.Cl.O=C(CN1CCOCC1)Nc1ccc(OC2CCN(C3CCC3)CC2)cc1
value type: remaining at 0.5 h
measured: < 5%

---

- assay remarks: Metabolic stability in dog hepatocytes after 30 mins by LC-MS/MS analysis
- Assay type: ADME, cell-based, Canis lupus familiaris, Hepatocyte
- measurement context: read-out: Stability

cpd smiles: Cl.Cl.O=C(CN1CCOCC1)Nc1ccc(OC2CCN(C3CCC3)CC2)cc1
remaining at 0.5 h [%]: 33

---

- assay remarks: Tmax in Beagle dog at 3 mg/kg, po or 1 mg/kg, iv by LC-MS/MS analysis
- Format: ADME, organism-based, Canis lupus familiaris
- measurement context: in vivo

cpd smiles: Cl.Cl.O=C(CN1CCOCC1)Nc1ccc(OC2CCN(C3CCC3)CC2)cc1
Tmax: 15 to 60 min
